# Test system: A98S MscS in the cytoplasmic membrane of E. coli
# ASSAY_OVERVIEW: Patch-clamp of A98S MscS in excised spheroplast patches (activation midpoint shift)
# STATED_CONDITIONS: x-intercept of midpoint shift (∆p0.5) vs. concentration, native E. coli membrane, cytoplasmic side
Here, each record is paired with measured log Kmem (patch-clamp) data.
READOUT_KIND: log Kmem (patch-clamp)

[[record]]
molecule = "CC1(C)C2CC=C(CNCCC(=O)Nc3c(O)ccc(C(=O)O)c3O)C1C2 (centres unmarked)"
study_target = "A98S MscS in the cytoplasmic membrane of E. coli"
recorded_measurement = 6.1

[[record]]
molecule = "CC12C[C@@]34C=CC(=O)[C@@](C)(CCC(=O)Nc5c(O)ccc(C(=O)O)c5O)C3[C@H](CC1C4)O2 (some centres unmarked)"
study_target = "A98S MscS in the cytoplasmic membrane of E. coli"
recorded_measurement = 5.0

[[record]]
molecule = "O=C(CCN(Cc1ccc2c(c1)OCO2)Cc1ccc2c(c1)OCO2)Nc1c(O)ccc(C(=O)O)c1O"
study_target = "A98S MscS in the cytoplasmic membrane of E. coli"
recorded_measurement = 6.1

[[record]]
molecule = "CC1(C)C2CC=C(CN(CCC(=O)Nc3c(O)ccc(C(=O)O)c3O)CC3=CCC4CC3C4(C)C)C1C2"
study_target = "A98S MscS in the cytoplasmic membrane of E. coli"
recorded_measurement = 5.7

[[record]]
molecule = "CCCCN(CCCC)CCC(=O)Nc1c(O)ccc(C(=O)O)c1O"
study_target = "A98S MscS in the cytoplasmic membrane of E. coli"
recorded_measurement = 5.5


----------
# ASSAY_OVERVIEW: Langmuir monolayer pressure-area isotherms
# Assay type: physicochemical, E. coli
# STATED_CONDITIONS: corrected to the monolayer-bilayer equivalence pressure 35 mN/m (Equation 6)
# Method: All Langmuir monolayer experiments were done with a two-barrier rectangular 22 cm × 6 cm trough (MicroTrough XS, Kibron Inc., Helsinki, Finland) placed in an Airclean hood. A Dyneprobe metal alloy needle was used as the Wilhelmy plate. […] For each analog, isotherms were measured at least four times at every concentration. […] Thus, the molecular area of the drug can be determined from the logarithmic slope of ΔA on surface pressure. […]
Binary call on log Klip @ 35 mN/m, Corrected with cut-off 6: strictly below means criterion met, and equality or higher means criterion not met.

[[record]]
molecule = "CC1(C)C2CC=C(CN(CCC(=O)Nc3c(O)ccc(C(=O)O)c3O)CC3=CCC4CC3C4(C)C)C1C2 [QD-11, myrtemycin]"
answer_label = "criterion not met"

[[record]]
molecule = "CC1(C)C2CC=C(CNCCC(=O)Nc3c(O)ccc(C(=O)O)c3O)C1C2 (stereo not shown) [QL-03]"
answer_label = "criterion met"

[[record]]
molecule = "Cn1ccnc1CN(CCC(=O)Nc1c(O)ccc(C(=O)O)c1O)Cc1nccn1C [G262]"
answer_label = "criterion met"

[[record]]
molecule = "O=C(CCN(Cc1cccnc1)Cc1cccnc1)Nc1c(O)ccc(C(=O)O)c1O [G258]"
answer_label = "criterion met"

[[record]]
molecule = "CCCCN(CCCC)CCC(=O)Nc1c(O)ccc(C(=O)O)c1O [QD-06]"
answer_label = "criterion met"

[[record]]
molecule = "O=C(CCN(Cc1ccc2c(c1)OCO2)Cc1ccc2c(c1)OCO2)Nc1c(O)ccc(C(=O)O)c1O [G271]"
answer_label = "criterion met"

